Just for reference, patent US20230357249A1 is where these values come from.

Biological target: AR protein (Homo sapiens)
Construct: endogenous in cells; host or cells: VCaP
Sequence (P10275 1-920): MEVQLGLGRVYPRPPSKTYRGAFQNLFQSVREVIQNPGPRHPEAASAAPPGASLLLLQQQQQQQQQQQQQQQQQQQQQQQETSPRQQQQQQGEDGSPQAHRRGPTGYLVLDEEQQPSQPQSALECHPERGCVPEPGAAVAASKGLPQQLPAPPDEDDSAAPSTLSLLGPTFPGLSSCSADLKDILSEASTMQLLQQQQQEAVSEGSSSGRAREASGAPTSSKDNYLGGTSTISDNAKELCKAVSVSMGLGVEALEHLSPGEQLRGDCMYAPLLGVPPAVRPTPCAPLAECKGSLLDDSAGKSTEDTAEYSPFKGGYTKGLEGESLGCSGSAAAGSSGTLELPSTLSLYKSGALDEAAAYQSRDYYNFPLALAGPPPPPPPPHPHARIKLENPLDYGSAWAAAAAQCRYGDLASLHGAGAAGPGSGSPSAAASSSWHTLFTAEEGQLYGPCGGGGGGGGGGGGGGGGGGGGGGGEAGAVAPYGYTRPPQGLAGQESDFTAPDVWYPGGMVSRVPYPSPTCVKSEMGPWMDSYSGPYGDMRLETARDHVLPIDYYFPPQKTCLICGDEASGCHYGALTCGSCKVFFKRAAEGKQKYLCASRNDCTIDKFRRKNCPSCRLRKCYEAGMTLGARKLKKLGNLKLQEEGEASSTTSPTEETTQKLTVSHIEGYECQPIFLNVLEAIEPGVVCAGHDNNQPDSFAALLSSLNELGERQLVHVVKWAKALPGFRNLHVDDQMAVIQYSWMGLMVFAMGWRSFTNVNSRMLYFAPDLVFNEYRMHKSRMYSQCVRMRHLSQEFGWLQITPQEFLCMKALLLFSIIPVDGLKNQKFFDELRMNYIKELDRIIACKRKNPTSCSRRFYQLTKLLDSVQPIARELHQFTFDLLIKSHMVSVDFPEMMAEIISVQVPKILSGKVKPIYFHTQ
Assay: AR protein degradation in VCaP cells, Western blotting
Type: cell-based
Conditions: 100 nM, 24 hr treatment
parameter-measured: percent AR protein degradation at 0.1 µM

Solved entries:
CN(c1ccc(C#N)c(Cl)c1)[C@H]1CC[C@H](NC(=O)c2ccc(C3CCN(CC(=O)N4Cc5cc6c(cc5C4)C(=O)N(C4CCC(=O)NC4=O)C6)CC3)cc2)CC1 (some centres unmarked) ... > 90%
CC1(C)C(Nc2ccc(C(=O)N3CCC(N4Cc5cc6c(cc5C4)C(=O)N(C4CCC(=O)NC4=O)C6=O)CC3)cc2)C(C)(C)C1Oc1ccc(C#N)c(Cl)c1 (centres unmarked) ... > 90%

### Prompt Given CC1(C)[C@H](Oc2ccc(C#N)c(Cl)c2)C(C)(C)[C@H]1N1Cc2cc(C(=O)N3CCC(CN4Cc5cc6c(cc5C4)C(=O)N(C4CCC(=O)NC4=O)C6=O)CC3)ccc2C1=O (some centres unmarked) , respond with its percent AR protein degradation at 0.1 µM.
### Response 10 to 50%

### Prompt Tell me measured percent AR protein degradation at 0.1 µM for C[C@H]1C[C@@H](NC(=O)c2ccc(N3CCC(N4Cc5cc6c(cc5C4)C(=O)N(C4CCC(=O)NC4=O)C6=O)CC3)cc2)CC[C@@H]1Oc1ccc(C#N)c(Cl)c1 (some centres unmarked) please.
### Response > 90%

### Prompt For the compound N#Cc1ccc(OC2CCC3(CC2)CC(NC(=O)c2ccc(N4CCC(CN5Cc6cc7c(cc6C5)C(=O)N(C5CCC(=O)NC5=O)C7=O)CC4)cc2)C3)cc1Cl (centres unmarked) , give its measured percent AR protein degradation at 0.1 µM value.
### Response 10 to 50%
